# System: Con-NCI-H82 cell (NCI-H82 transfected with empty virus vector)
# Experiment: Cell viability assay (Promega CellTiter-Glo), inhibitory effect on Con-NCI-H82 cell
# Format: cell-based
# Condition details: Homo sapiens; NCI-H82 transfected with empty virus vector (control); CellTiter-Glo; read-out: inhibitory effect on Con-NCI-H82 (IC50)
Field 'label' (enum: YES / NO). Set to YES when IC50 is strictly under 0.7 µM; else NO.

These recorded examples may help you get a feel for the data.
Smiles input: COc1ccc2c(CCC(C)C)c3[n+](cc2c1OC)CCc1cc2c(cc1-3)OCO2
Classification: NO

Smiles input: CCOc1c(OC)ccc2cc3[n+](cc12)CCc1cc2c(cc1-3)OCO2
Classification: NO

Smiles input: CCCCCCCCc1c2[n+](cc3c(OC)c(OC)ccc13)CCc1cc3c(cc1-2)OCO3
Classification: YES

Smiles input: CCCOc1c(OC)ccc2cc3[n+](cc12)CCc1cc2c(cc1-3)OCO2
Classification: YES

Smiles input: CCc1c2c(OC)c(OC)ccc2cc2[n+]1CCc1cc3c(cc1-2)OCO3
Classification: NO

Kindly review the next compound as well.
Confirm or reject: IC50 of `COc1ccc2cc3[n+](cc2c1OCCCCCCNC(=O)OC(C)(C)C)CCc1cc2c(cc1-3)OCO2` lies strictly below 0.7 µM
YES
